# System tested: Glucose transporter (Leishmania mexicana)
# Measurement protocol: ST_JUDE_LEISH: Cytotoxicity at 2uM final concentration against transgenic Leishmania Mexicana promastigotes LmGT2 that are glucose transport deficient and complemented with the L. Mexicana glucose transporter 2. Activity is measured by DNA content using SYBR green in vitro
# Type: functional
Quantity kind: inhibition (%)

COc1ccc(CN2CCN(C(=O)c3cccs3)CC2)c(O)c1 ... 8.97
CC(C)(C)c1ccc(CN2CCC(CNC(=O)c3cc(-c4cccc(C(F)(F)F)c4)cs3)C2)cc1 (stereo not given) ... -5.97
Fc1cccc(C=NN=c2cc[nH]c3ccccc23)c1 ... 6.88
COc1ccc2nccc([C@@H](O)CN3CCC(NC(=O)c4ccc(Cl)c(Cl)c4)CC3)c2c1 ... 18.8
CCNc1cc(C)nc(Nc2ccc(NC(=O)c3cccs3)cc2)n1 ... 1.85
Cc1cc(N[C@@H](CC(C)C)C(=O)NCc2cccs2)nc(Nc2ccccc2)n1 ... 2.84
CCCCNC(=O)[C@@H](NC(=O)c1ccc(O)c(-c2ccc(Cl)c(Cl)c2)c1)C(C)C ... 3.47
O=C(NC1CCN(Cc2ccccc2)CC1)c1cc(-c2ccncc2)c(-c2ccc(Cl)c(O)c2)o1 ... 0.77
Cc1nnsc1C(=O)Nc1ccc(-c2ccc(-c3nc4ccccc4[nH]3)s2)cc1 ... 1.47
COc1ccc(/C=C/C(=O)N2CCc3cc4nccc(N5CCN6CCC[C@H]6C5)c4cc32)cc1 ... 4.53
